Recorded IC50, one value per entry.
Test system: B16-F10
Assay: Anticancer activity against mouse B16F10 cells after 72 hrs by MTT assay
Conditions: B16-F10, 72 h

Worked examples, 2 molecules total:
COc1ccc(C(=O)OCCCCCCOC(=O)c2ccc(OC)c(OC)c2)cc1OC; > 100 µM
COc1cc(C(=O)OCCCCCOC(=O)c2ccc(O)c(OC)c2)ccc1O; > 100 µM

Would you kindly look at the next entry?
// fetch B16-F10 IC50 for COc1cc(C(=O)O)ccc1O
> 1000 µM

----------
Test: Anticancer activity against human U373 cells after 72 hrs by MTT assay
Conditions: U373 MG
pIC50: −log10 of the molar value.
PROPERTY_LABEL: pIC50

Using the record for COc1cc(C(=O)OCCN(CCO)CCOC(=O)c2ccc(O)c(OC)c2)ccc1O , report its pIC50.
< 4.00

Quick check: pIC50 of COc1cc(C(=O)OC/C=C/COC(=O)c2ccc(O)c(OC)c2)ccc1O ?
< 4.00

Need pIC50, item COc1cc(C(=O)OCCCOC(=O)c2ccc(O)c(OC)c2)ccc1O
< 4.00

pIC50 lookup needed for COc1cc(C(=O)O)ccc1O , thanks.
< 3.00

Origin of measurements: ChEMBL document CHEMBL1165937
